Recorded values, source patent US20210047373A1.

test: Chromophore titration, fit to single binding site isotherm: DFHBI-1T; details: n=1 titration; ± SD of the fit; Table 3C
MEASUREMENT_KIND: Kd

>>> reported_value("mFAP2.4: SEQ ID NO:59 (protein, (1)..(1) optionally absent) MSRAAQLLPGTWQVTMTNEDGQTSQGQMHFQPRSPYTMDIVAQGTISDGRPIVGYGKATVKTPDTLDVDITYPSLGNIKAQGQITMDSPTQFKFDATTKGAGNFTGRLTGTLQRQE")
"38.7 µM"
>>> reported_value("mFAP2.5: SEQ ID NO:60; mutations of mFAP2.3 and mFAP2.4 combined (protein, (1)..(1) optionally absent) MSRAAQLLPGTWQVTMTNEDGQTSQGQWHFQPRSPYTMDIVAQGTISDGRPIVGYGKATVKTPDTLDVDITYPSLGNIKAQGQITMDSPTQFKWDATTKGENDFHGRLTGTLQRQE")
"52.5 µM"
